- method: Dose encompassing the 50% lethal effect was recorded when administered intraperitoneally in mice; 400-800
- Assay type: ADME, organism-based
- runConditions: mouse, in vivo, ip
property: LD50 (mg/kg)
Only the number, expressed in mg/kg, is required.

So what does the record say about LD50 for "CCSc1nnc(-c2ccccc2)n1C" ? 800
